Measured Turnover by item
test system: Pseudomonas fluorescens HPPD polypeptide (wild-type and mutants); test: Coupled HPPD activity assay: turnover and residual turnover in crude HPPD polypeptide extracts with and without Cmpd. 1; assay type: biochemical; conditions: absence of Cmpd. 1; changes in absorbance (OD) at 320 nm in the coupled assay, 30 min
MEASURED ENDPOINT: Turnover

[[record]]
molecule = "SEQ ID NO:61 (protein, mutant HPPD polypeptide) MADLYENPMGLMGFEFIEFASPTPGTLEPIFEIMGFTKVATHRSKNVHLYRQGEINLILNNEPNSIASYFAAEHGPSVCGMAFRVKDSQKAYNRALELGAQPIHIDTGPMELNLPAIKGIGGAPLYLIDRFGEGSSIYDIDFVYLEGVERNPVGAGLKVIDHLTHNVYRGRMVYWANFYEKLFNFREARYFDIKGEYTGLTSKAMSAPDGMIKIPLNEESSKGAGQIEEFLMQFNGEGIQHVAFLTDDLVKTWDALKKIGMRFLTAPGDEYYEMLEGRLPDHGEPVDQLQARGILLDGSSVEGDKRLLLQIFSEQLMGPVFFEFIQRKGDDGFGPDSFKVLFEQMERDQVRRGVLTAD"
result = 0.206

[[record]]
molecule = "SEQ ID NO:23 (protein, mutant HPPD polypeptide) MADLYENPMGLMGFEFIEFASPTPGTLEPIFEIMGFTKVATHRSKNVHLYRQGEINLILNNEPNSIASYFAAEHGPSVCGMAFRVKDSQKAYNRALELGAQPIHIDTGPMELNLPAIKGIGGAPLYLIDRFGEGSSIYDIDFVYLEGVERNPVGAGLKVIDHLTHNVYRGRMVYWANFYEKLFNFREARYFDIKGEYTGLTSKAMSAPDGMIRIPLNEESSKGAGQIEEFLMQFNGEGIQHVAFLTDDLVKTWDALKKIGMRFMTAPGDEYYEMLEGRLPDHGEPVDQLQARGILLDGSSVEGDKRLLLQIFSEQLMGPVFFEFIQRKGDDGFGPHSFKVLFESIERDQVRRGVLTAD"
result = 0.272

